All figures here come from the supplement of paper PMC7411054.

Tested on: A549-TUBA1B-RELA
Assay: phenotypically active (imaging signature differs from DMSO and reproducible) at any of 0.3-9 uM (binary (1 = active, 0 = inactive)); higher = active
Settings: treatment time: 24 h
Hi! Could you answer with just one of these? active, inactive

# count of solved cases: 5
CCOC(=O)Nc1ccc2c(c1)N(C(=O)CCN1CCOCC1)c1ccccc1S2 | inactive
C[C@@H](CO)CCC[C@@H](C)[C@H]1CC[C@H]2[C@@H]3CC=C4C[C@@H](O)CC[C@]4(C)[C@H]3CC[C@]12C [27-Hydroxycholesterol] | inactive
COc1cc2nc(-c3cc(F)ccc3O)nc(N[C@@H]3CNC[C@H]3C(C)(C)O)c2cc1OC | active
O=c1c(O)c(-c2ccc(O)cc2)oc2cc(O)cc(O)c12 | inactive
CC1(C)CCC(C)(C)c2cc(C3(c4ccc(C(=O)O)cc4)OCCO3)ccc21 | inactive

*Q* Recorded test call requested for CNCC[C@@H](Oc1ccccc1C)c1ccccc1
*A* inactive

*Q* Please let me know the test result on file for CCCCCCCN(CC)CCCC(O)c1ccc(NS(C)(=O)=O)cc1 (configuration not stated) [ibutilide] .
*A* inactive
